Measured values drawn from patent US20080311122A1 for this set.

Entries annotated with measured IC50, inhibition of rHMG1 stimulated TNF-α release from human PBMC
Target: T1, recombinant HMG1 purified from E. coli as a calmodulin binding protein (CBP) fusion protein (human, UniProt A9RA84 1-215 (Papio anubis entry))
T1 sequence: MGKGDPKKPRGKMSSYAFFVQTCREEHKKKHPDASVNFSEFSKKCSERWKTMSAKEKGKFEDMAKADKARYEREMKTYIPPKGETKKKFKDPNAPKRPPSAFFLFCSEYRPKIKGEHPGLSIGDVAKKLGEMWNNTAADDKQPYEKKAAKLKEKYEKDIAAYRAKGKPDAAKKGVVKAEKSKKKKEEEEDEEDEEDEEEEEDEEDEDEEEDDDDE
Assay: cell-based or functional assay
The figure you give is taken to be in µg/mL; do not add the unit.

anti-HMG1 antibody S10 (antibody, V domains shown) VH: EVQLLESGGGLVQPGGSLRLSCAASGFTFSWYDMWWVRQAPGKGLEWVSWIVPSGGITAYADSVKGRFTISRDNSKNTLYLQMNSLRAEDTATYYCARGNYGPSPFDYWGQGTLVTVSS VL: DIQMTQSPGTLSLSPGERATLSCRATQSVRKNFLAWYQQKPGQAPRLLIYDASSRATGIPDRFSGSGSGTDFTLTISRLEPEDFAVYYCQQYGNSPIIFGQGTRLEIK :: 0.875
anti-HMG1 antibody S16 (antibody, V domains shown, also called ATCC PTA-6259) VH: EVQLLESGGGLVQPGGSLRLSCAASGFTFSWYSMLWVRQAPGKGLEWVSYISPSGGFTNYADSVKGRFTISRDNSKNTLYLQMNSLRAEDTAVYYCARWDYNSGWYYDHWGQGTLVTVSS VL: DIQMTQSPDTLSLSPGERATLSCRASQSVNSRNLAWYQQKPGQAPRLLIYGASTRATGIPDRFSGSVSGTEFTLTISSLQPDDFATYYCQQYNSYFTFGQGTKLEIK :: 1.44
anti-HMG1 antibody G9 (antibody, V domains shown) VH: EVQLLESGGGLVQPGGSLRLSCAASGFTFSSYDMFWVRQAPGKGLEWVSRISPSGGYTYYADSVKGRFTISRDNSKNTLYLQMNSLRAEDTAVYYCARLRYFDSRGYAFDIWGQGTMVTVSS VL: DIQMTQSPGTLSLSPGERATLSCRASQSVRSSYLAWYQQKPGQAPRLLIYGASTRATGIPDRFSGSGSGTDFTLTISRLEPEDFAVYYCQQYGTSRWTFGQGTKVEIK :: 0.248
anti-HMG1 antibody G12 (antibody, V domains shown) VH: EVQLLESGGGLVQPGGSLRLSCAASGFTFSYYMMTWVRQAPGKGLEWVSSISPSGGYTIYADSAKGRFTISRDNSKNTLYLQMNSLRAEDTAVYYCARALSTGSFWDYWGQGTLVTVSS VL: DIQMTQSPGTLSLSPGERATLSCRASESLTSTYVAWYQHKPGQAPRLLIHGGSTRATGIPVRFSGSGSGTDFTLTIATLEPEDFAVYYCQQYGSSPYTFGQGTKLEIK :: 0.796

Switching to the query record.
Need IC50, inhibition of rHMG1 stimulated TNF-α release from human PBMC of anti-HMG1 antibody G20 (antibody, V domains shown) VH: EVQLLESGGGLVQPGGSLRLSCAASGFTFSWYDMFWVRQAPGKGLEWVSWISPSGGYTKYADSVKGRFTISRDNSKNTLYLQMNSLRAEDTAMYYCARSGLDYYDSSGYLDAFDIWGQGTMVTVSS VL: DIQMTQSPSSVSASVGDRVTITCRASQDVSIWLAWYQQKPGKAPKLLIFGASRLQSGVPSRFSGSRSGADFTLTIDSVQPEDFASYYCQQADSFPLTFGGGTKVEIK , thanks.
0.598
